- Test system: Jurkat
- assay.text: Cytotoxicity against human Jurkat cells after 72 hrs by MTT assay
- Type: functional, cell-based
property.label: IC50 (µM)
Quick reminder: number only, in µM, skip the unit.

// query Lookup: IC50 / Jurkat / `O=C(/C=C/c1ccc([N+](=O)[O-])cc1)O[C@@H]1[C@H]2OC(=O)C[C@H]2O[C@@H]1[C@H](O)c1ccccc1`
// result 44.7

// query Note, next up: `O=C(/C=C/c1ccc([N+](=O)[O-])cc1)O[C@@H](c1ccccc1)[C@H]1O[C@@H]2CC(=O)O[C@@H]2[C@H]1O`
// result 24.6

// query Note, next up: `O=C(/C=C/c1ccc([N+](=O)[O-])cc1)O[C@H](c1ccccc1)[C@H]1O[C@@H]2CC(=O)O[C@@H]2[C@H]1O`
// result 10.5

// query Note, next up: `COc1ccc(/C=C/C(=O)O[C@H](c2ccccc2)[C@H]2O[C@@H]3CC(=O)O[C@@H]3[C@H]2O)cc1`
// result 42.3

// query Note, next up: `COc1ccc(/C=C/C(=O)O[C@@H]2[C@H]3OC(=O)C[C@H]3O[C@@H]2[C@@H](O)c2ccccc2)cc1`
// result 1.12

// query Note, next up: O=C(/C=C/c1ccc([N+](=O)[O-])cc1)OC1C2OC(=O)CC2O[C@@H]1Cc1ccccc1 (single isomer, unassigned)
// result 3.74

// query Note, next up: `O=C(/C=C/c1ccccc1)O[C@@H]1[C@H]2OC(=O)C[C@H]2O[C@@H]1[C@H](OC(=O)/C=C/c1ccccc1)c1ccccc1`
// result 2.65

// query Note, next up: `O=C(/C=C/c1ccc(F)cc1)O[C@@H]1[C@H]2OC(=O)C[C@H]2O[C@@H]1[C@@H](O)c1ccccc1`
// result 0.69

// query Note, next up: `O=C(/C=C/c1ccc(F)cc1)O[C@@H](c1ccccc1)[C@H]1O[C@@H]2CC(=O)O[C@@H]2[C@H]1O`
// result 19.6

// query Note, next up: `O=C(/C=C/c1ccc(F)cc1)O[C@@H]1[C@H]2OC(=O)C[C@H]2O[C@@H]1[C@H](O)c1ccccc1`
// result 17.6

// query Note, next up: `O=C(/C=C/c1ccccc1)O[C@@H]1[C@H]2OC(=O)C[C@H]2O[C@@H]1[C@@H](O)c1ccccc1`
// result 0.87

// query Note, next up: O=C(/C=C/c1ccc(F)cc1)OC1C2OC(=O)CC2O[C@@H]1Cc1ccccc1 (single isomer, unassigned)
// result 2.63

// query Note, next up: `O=C(/C=C/c1ccc([N+](=O)[O-])cc1)O[C@@H]1[C@H]2OC(=O)C[C@H]2O[C@@H]1[C@@H](O)c1ccccc1`
// result 3.52

// query Note, next up: `O=C(/C=C/c1ccc(F)cc1)O[C@H](c1ccccc1)[C@H]1O[C@@H]2CC(=O)O[C@@H]2[C@H]1O`
// result 18.1

====

- assay.text: Cytotoxicity against human HL60 cells after 72 hrs by MTT assay
- Format: functional, cell-based
- condition.set: HL-60, 72 h
property.label: IC50 (µM)
Quick reminder: number only, in µM, skip the unit.

// query Fill blank: measured IC50 of the molecule O=C(/C=C/c1ccc(F)cc1)OC1C2OC(=O)CC2O[C@@H]1Cc1ccccc1 (single isomer, unassigned) is ____.
// result 1.02

// query Note, next up: `O=C(/C=C/c1ccccc1)O[C@@H]1[C@H]2OC(=O)C[C@H]2O[C@@H]1[C@@H](OC(=O)/C=C/c1ccccc1)c1ccccc1`
// result 0.15

// query Note, next up: `COc1ccc(/C=C/C(=O)O[C@H](c2ccccc2)[C@H]2O[C@@H]3CC(=O)O[C@@H]3[C@H]2O)cc1`
// result 41.4

// query Note, next up: `O=C(/C=C/c1ccc(F)cc1)O[C@@H](c1ccccc1)[C@H]1O[C@@H]2CC(=O)O[C@@H]2[C@H]1O`
// result 11

// query Note, next up: COc1ccc(/C=C/C(=O)OC2C3OC(=O)CC3O[C@@H]2Cc2ccccc2)cc1 (single isomer, unassigned)
// result 0.27

// query Note, next up: `O=C(/C=C/c1ccccc1)O[C@@H]1[C@H]2OC(=O)C[C@H]2O[C@@H]1[C@H](OC(=O)/C=C/c1ccccc1)c1ccccc1`
// result 3.33

// query Note, next up: `O=C(/C=C/c1ccc([N+](=O)[O-])cc1)O[C@@H](c1ccccc1)[C@H]1O[C@@H]2CC(=O)O[C@@H]2[C@H]1O`
// result 10.5
